- TESTED_TARGET: DLG1_1, Q12959
- METHOD: holdup assay
- Parameters: key: below the threshold = too weak to quantify, mostly under pKd 3.1 to 4
- DETAILS: plain residues with an end cap or a label only (N-terminal biotin on a linker: ado-ado)
REPORTED_METRIC: pKd

1) STYCDYTIEI [FAM71C, Q8NEG0]
below the threshold
2) AKADAQESRL [PLCB2, Q00722]
below the threshold
3) LPPPESESKV [KCNJ9, Q92806]
below the threshold
4) PEKVSNTTVV [IGSF5, Q9NSI5]
4.25
5) VCMGDHWFDV [PRKN, O60260]
below the threshold
6) EFKQTSSFLV [JAM1, Q9Y624]
below the threshold
7) DYSNLRETDI [ADRA1D, P25100]
4.1
8) NTALVESEDL [PALLS, Q8WX93;Q8WX93-1]
below the threshold

The measurements presented in this section are drawn from paper PMC9482650.
